Subject of test: recombinant human MGAT2 (Homo sapiens (Human))
Assay procedure: Measurement of human MGAT2 inhibitory activity
Type: biochemical
Protocol conditions: read-out: IC50 (concentration exhibiting 50% enzyme inhibition), Table 53
Excerpt: A full-length human MGAT2 gene to which a Flag-tag had been added at the N-terminal was inserted into pFastBac (from Invitrogen). A recombinant baculovirus was produced in accordance with the protocol for a Bac-to-Bac baculovirus expression system (produced by Invitrogen), and Sf-9 cells were infected therewith. The cells were collected and sonicated, and then the membrane fraction was collected through centrifugation. […]
I'd appreciate it if you could supply pIC50 values for the items below.
Answers are plain numbers, as −log10 of the molar value.

State the recorded pIC50 for every item in the following list.
1. Cc1ccc(-n2nc3c(c2NC(=O)CS(C)(=N)=O)C(=O)NC2(C3)CN(c3ccc(C(F)(F)F)cc3)C2)nc1 (stereo not drawn) [II-308]
2. CS(=O)(=O)CC(=O)Nc1c2c(nn1CCc1ccc(F)cc1)C[C@@]1(CCc3cc(OCC(F)(F)F)ccc31)NC2=O [II-23]
3. Cc1ccc(-n2nc3c(c2NC(=O)CS(C)(=N)=O)C(=O)N[C@@]2(CCc4cc(OCC(F)(F)F)ccc42)C3)nc1 (single isomer, unassigned) [II-275]

8.18
7.74
8.21

* * *

Subject of test: recombinant human MGAT2 (Homo sapiens (Human), UniProt Q3SYC2)
Sequence (Q3SYC2 whole entry): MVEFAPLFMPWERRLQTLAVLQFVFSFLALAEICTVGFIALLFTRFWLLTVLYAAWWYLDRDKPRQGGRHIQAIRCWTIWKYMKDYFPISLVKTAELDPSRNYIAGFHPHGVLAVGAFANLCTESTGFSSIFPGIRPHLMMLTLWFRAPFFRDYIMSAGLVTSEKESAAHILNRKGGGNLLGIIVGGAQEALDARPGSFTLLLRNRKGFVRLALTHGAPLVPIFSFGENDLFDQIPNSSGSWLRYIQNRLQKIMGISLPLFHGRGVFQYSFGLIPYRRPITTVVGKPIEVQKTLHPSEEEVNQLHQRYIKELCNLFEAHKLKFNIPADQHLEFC
Assay procedure: Measurement of human MGAT2 inhibitory activity
Format: biochemical
Protocol conditions: read-out: IC50 (concentration exhibiting 50% enzyme inhibition), Table 53
Response field label takes YES when IC50 is strictly below 10 nM and NO in all other cases.

>>> category("Cc1cc(-n2nc3c(c2NC(=O)CS(C)(=O)=O)C(=O)N[C@@]2(CCOc4cc(Cl)ccc42)C3)no1")
"YES"
>>> category("COC1CN(c2ccc3c(c2)CC[C@]32Cc3nn(-c4ccc(C#N)cn4)c(NC(=O)CS(C)(=O)=O)c3C(=O)N2)C1")
"NO"
>>> category("CS(=O)(=O)CC(=O)Nc1c2c(nn1-c1ccc(F)cc1)CC1(CN(c3ccc(C(F)(F)F)cc3)C1)NC2=O")
"NO"
>>> category("COCCS(=O)(=O)NC(=O)c1c2c(nn1-c1ccc(C)c(F)c1)C[C@]1(CCc3cc(OCC(F)(F)F)ccc31)NC2=O")
"NO"
>>> category("CS(=O)(=O)CC(=O)Nc1c2c(nn1CCC1CC1)C[C@@]1(CCOc3cc(OCC(F)(F)F)ccc31)NC2=O")
"YES"

Say whether its IC50 is strictly beneath 10 nM. Entry: N#Cc1ccc(-n2nc3c(c2NC(=O)C2CCS(=O)(=O)C2)C(=O)N[C@@]2(CCc4cc(OCC(F)(F)F)ccc42)C3)nc1 (some centres unmarked)
YES

hey, is IC50 for Cc1cc(-n2nc3c(c2C(=O)NCC(F)(F)F)C(=O)N[C@@]2(CCc4cc(OCC(F)(F)F)ccc42)C3)no1 lower than 10 nM or not?
NO

Below 10 nM on IC50? Entry CS(=O)(=O)CC(=O)Nc1c2c(nn1CCCOC(F)F)C[C@@]1(CCc3cc(OCC4CC(F)(F)C4)ccc31)NC2=O
YES

Does the reported IC50 of the following compound sit strictly below 10 nM? CS(=O)(=O)CCNC(=O)c1c2c(nn1-c1ccc(C#N)cn1)C[C@]1(CCc3cc(OCC(F)(F)F)ccc31)NC2=O
NO

Input CS(=O)(=O)CC(=O)Nc1c2c(nn1-c1ccc(C#N)cn1)CC1(CN(c3cccc(C(F)(F)F)c3)C1)NC2=O ; condition: IC50 strictly below 10 nM. Does it hold?
NO

* * *

Give measured pIC50 for each item. Keep answers brief.
Subject of test: recombinant human MGAT2 (Homo sapiens (Human))
Assay procedure: Measurement of human MGAT2 inhibitory activity
Format: biochemical
Protocol conditions: read-out: IC50 (concentration exhibiting 50% enzyme inhibition), Table 53
One number for each entry, as −log10 of the molar value.

Answered cases to consult:
>>> result_number("CS(=O)(=O)CC(=O)Nc1c2c(nn1CCC1CC1)C[C@@]1(CCc3cc(N4CC5(CCOCC5)C4)ccc31)NC2=O")
7.28
>>> result_number("Cc1cc(-n2nc3c(c2NC(=O)CS(C)(=O)=O)C(=O)N[C@](C)(c2ccc(OCC(F)(F)F)cc2F)C3)no1")
8.44
>>> result_number("N#Cc1ccc(-n2nc3c(c2C(=O)NCCS(N)(=O)=O)C(=O)N[C@]2(CCc4cc(OCC(F)(F)F)ccc42)C3)nc1")
8.43
>>> result_number("Cc1ccc(-n2nc3c(c2NC(=O)CS(C)(=O)=O)C(=O)N[C@](C)(c2ccc(OCC(C)(F)F)cc2F)C3)nc1")
8.51
>>> result_number("CS(=O)(=O)CC(=O)Nc1c2c(nn1-c1ccc(C#N)cn1)C[C@]1(CCc3cc(C(F)(F)F)ccc31)NC2=O")
8.39

Please supply pIC50 for each of the following items, keeping them in order.
1. CS(=O)(=O)CC(=O)Nc1c2c(nn1CCn1cccn1)C[C@]1(CCOc3cc(OCC(F)(F)F)ccc31)NC2=O
2. CS(=O)(=O)CC(=O)Nc1c2c(nn1CCCCC(F)(F)F)C[C@]1(CCOc3cc(OCC(F)(F)F)ccc31)NC2=O

1: 7.68; 2: 8.15

Please give pIC50, item by item, for the list that follows.
1. CS(=O)(=O)CC(=O)Nc1c2c(nn1-c1cc(C(F)(F)F)on1)C[C@]1(CCOc3cc(OCC(F)(F)F)ccc31)NC2=O
2. Cc1cnnc(-n2nc3c(c2NC(=O)CS(C)(=O)=O)C(=O)N[C@@]2(CCc4cc(OCC(F)(F)F)ccc42)C3)c1
3. Cc1ccc(-n2nc3c(c2C(=O)NCC2(C#N)CC2)C(=O)N[C@@]2(CCOc4cc(OCC(F)(F)F)ccc42)C3)nc1
4. CNS(=O)(=O)CC(=O)Nc1c2c(nn1-c1ccc(C)cn1)C[C@]1(CCOc3cc(OCC(F)(F)F)ccc31)NC2=O

8.28
8.19
7.01
8.87

Please state, for each entry, its recorded pIC50.
1. CS(=O)(=O)CC(=O)Nc1c2c(nn1-c1ccc(C#N)cn1)C[C@]1(CCc3c1ccc(OCC(F)(F)F)c3F)NC2=O
2. CC1(C)CN(c2ccc3c(c2)CC[C@@]32Cc3nn(CCC4CC4)c(NC(=O)CS(C)(=O)=O)c3C(=O)N2)C1
3. COC1(C)CN(c2ccc3c(c2)CC[C@@]32Cc3nn(CCC4CC4)c(NC(=O)CS(C)(=O)=O)c3C(=O)N2)C1

[8.21, 7.92, 7.29]

* * *

Subject of test: recombinant human MGAT2 (Homo sapiens (Human))
Assay procedure: Measurement of human MGAT2 inhibitory activity
Assay type: biochemical
Protocol conditions: read-out: IC50 (concentration exhibiting 50% enzyme inhibition), Table 53
Task for the reader: assign each of the following molecules its reported pIC50.
Numbers only, as −log10 of the molar value.

Reference set, count: 6
>>> result_number("C[C@@]1(c2ccc(OCC(F)(F)F)cc2F)Cc2nn(-c3ccc(F)c(F)c3)c(NC(=O)CS(C)(=O)=O)c2C(=O)N1")
8.05
>>> result_number("Cc1ccc(-n2nc3c(c2C(=O)NCC2(CO)CC2)C(=O)N[C@@]2(CCc4cc(OCC(F)(F)F)ccc42)C3)cc1F")
8.09
>>> result_number("CS(=O)(=O)NC(=O)c1c2c(nn1-c1ccc(C#N)cn1)C[C@]1(CCc3cc(OCC(F)(F)F)ccc31)NC2=O")
7.58
>>> result_number("N#Cc1ccc(-n2nc3c(c2C(=O)NCCOC(F)(F)F)C(=O)N[C@@]2(CCc4cc(OCC(F)(F)F)ccc42)C3)nc1")
7.22
>>> result_number("N#CCCNC(=O)c1c2c(nn1-c1ccc(C#N)cn1)C[C@]1(CCc3cc(OCC(F)(F)F)ccc31)NC2=O")
7.45
>>> result_number("Cc1cc(-n2nc3c(c2NC(=O)CS(C)(=O)=O)C(=O)N[C@@]2(CCc4cc(C(F)(F)F)ccc42)C3)nn1C")
8.23

Need pIC50 for each of these molecules.
1. N#Cc1ccc(-n2nc3c(c2C(=O)NCCC(F)(F)F)C(=O)N[C@@]2(CCc4cc(OCC(F)(F)F)ccc42)C3)nc1
2. Cc1ccc(-n2nc3c(c2C(=O)NS(=O)(=O)Cc2ccccc2)C(=O)N[C@@]2(CCc4cc(OCC(F)(F)F)ccc42)C3)nc1
3. CS(C)(=O)=NCCNC(=O)c1c2c(nn1-c1ccc(C#N)cn1)C[C@]1(CCc3cc(OCC(F)(F)F)ccc31)NC2=O
4. N#Cc1ccc(-n2nc3c(c2C(=O)NC2(C#N)CCCCC2)C(=O)N[C@@]2(CCc4cc(OCC(F)(F)F)ccc42)C3)nc1
5. Cc1ccc(-n2nc3c(c2NC(=O)CS(C)(=O)=O)C(=O)N[C@@]2(CCc4cc(OCC(F)(F)F)ccc42)C3)cn1

1: 7.90; 2: 7.23; 3: 6.32; 4: 8.08; 5: 7.34

Dear reader, for each entry below, please note its pIC50.
1. N#CCNC(=O)c1c2c(nn1-c1ccc(C#N)cn1)C[C@]1(CCc3cc(OCC(F)(F)F)ccc31)NC2=O
2. CS(=O)(=O)CC(=O)Nc1c2c(nn1-c1ccc(C#N)cn1)C[C@]1(CCc3ccccc31)NC2=O

1: 7.99; 2: 7.43
